Molecular target: CXCR2 (Homo sapiens (Human), UniProt P25025)
Sequence (P25025 whole entry): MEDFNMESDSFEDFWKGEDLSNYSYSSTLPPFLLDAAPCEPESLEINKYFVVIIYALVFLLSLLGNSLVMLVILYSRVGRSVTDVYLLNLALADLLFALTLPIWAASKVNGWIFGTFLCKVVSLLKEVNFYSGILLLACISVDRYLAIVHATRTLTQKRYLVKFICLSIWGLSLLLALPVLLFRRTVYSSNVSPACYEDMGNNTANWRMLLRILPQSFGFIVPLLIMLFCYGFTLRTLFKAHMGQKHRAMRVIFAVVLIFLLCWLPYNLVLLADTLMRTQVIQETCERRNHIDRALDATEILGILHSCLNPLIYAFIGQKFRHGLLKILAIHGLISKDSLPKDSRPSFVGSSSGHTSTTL
Assay: Inhibition of GROα-mediated intracellular calcium release in human neutrophils (FLIPR-3 Ca2+ mobilization)
Format: cell-based
Settings: human neutrophils, 25 nM GROα; read-out: IC50
Please provide measured IC50 for the entries that follow.

// known answers, use as guide
moleculeSmiles	IC50
O=C(Nc1ccc(F)cc1)c1ccc(SCC(=O)c2cc(C(=O)O)no2)nc1	0.081 µM
O=C(CSc1ccc(C(=O)Nc2ccc(F)cc2)cn1)c1cccc(C(F)(F)F)c1	> 10 µM
O=C(Nc1ccc(F)cc1)c1ccc(SCc2ccc([N+](=O)[O-])cc2)nc1	> 10 µM

Could you report IC50 for every entry in the following list?
1. O=C(Nc1ccc(F)cc1)c1ccc(SCc2ccccc2)nc1
2. O=C(Nc1ccc(F)cc1)c1ccc(SCC(=O)c2cccc3c2OCCCO3)nc1

// result
["0.393 µM", "> 10 µM"]

Could you report IC50 for every entry in the following list?
1. O=C(Nc1ccc(F)cn1)c1ccc(SCc2ccccc2B(O)O)nc1
2. O=C(Nc1ccc(OC(F)(F)F)cc1)c1ccc(SCc2ccccc2B(O)O)nc1
3. O=C(Nc1ccc(F)cc1)c1ccc(SCc2cccc3nsnc23)nc1
4. CC(C)(C)c1cc(C(=O)CSc2ccc(C(=O)Nc3ccc(F)cc3)cn2)cc(C(C)(C)C)c1O
5. COc1cc(CSc2ccc(C(=O)Nc3ccc(F)cc3)cn2)c(B(O)O)cc1OC
6. O=C(Nc1ccc(F)cc1)c1ccc(SCC(=O)c2ccccc2C(F)(F)F)nc1
7. O=C(Nc1ccc(F)cc1)c1ccc(SCc2cc([N+](=O)[O-])ccc2O)nc1
8. O=C(CSc1ccc(C(=O)Nc2ccc(F)cc2)cn1)c1cccc(Cl)c1

// result
1. 0.294 µM
2. 0.278 µM
3. > 5 µM
4. > 10 µM
5. > 10 µM
6. > 10 µM
7. > 5 µM
8. 0.21 µM

Could you report IC50 for every entry in the following list?
1. COc1ccc(C(=O)CSc2ccc(C(=O)Nc3ccc(F)cc3)cn2)cc1
2. O=C(Nc1ccc(F)cc1)c1ccc(SCC(=O)c2cccc3c2OCCO3)nc1
3. O=C(CSc1ccc(C(=O)Nc2ccc(F)cc2)cn1)c1ccc(Br)cc1
4. O=C(Nc1ccc(F)cc1)c1ccc(SCC(=O)c2csc3ccccc23)nc1
5. Cc1ccc2sc(C(=O)CSc3ccc(C(=O)Nc4ccc(F)cc4)cn3)c(C)c2c1
6. Cc1cc(C(=O)CSc2ccc(C(=O)Nc3ccc(F)cc3)cn2)ccc1Cl

// result
1: > 10 µM; 2: > 5 µM; 3: > 10 µM; 4: > 5 µM; 5: > 10 µM; 6: > 5 µM

Could you report IC50 for every entry in the following list?
1. CS(=O)(=O)c1ccc(C(=O)CSc2ccc(C(=O)Nc3ccc(F)cc3)cn2)cc1
2. O=C(Nc1ccc(F)cc1)c1ccc(SCC(=O)c2cc(-c3ccccc3)no2)nc1
3. O=C(Nc1ccc(F)cc1)c1ccc(SCC(=O)c2ccc(-c3ccccc3)s2)nc1
4. Cc1ccc2cc(CSc3ccc(C(=O)Nc4ccc(F)cc4)cn3)ccc2n1

// result
["> 10 µM", "> 5 µM", "> 10 µM", "> 10 µM"]
